Parameter: melting point. Scope: all listed entries.

# COMPOUND, PARAMETER_MEASURED, MEASURED_RESULT
rows = [
    ("Cc1ccc(-c2ccc3c(c2)C=C(C(=O)O)CO3)cc1", "melting point", "236 to 237 °C"),
    ("CCOC(=O)c1c(Cc2ccccc2)nc2c(C(F)(F)F)cccc2c1O", "melting point", "99 °C"),
    ("CS(=O)(=O)c1ccc(-c2cc(-c3nc4ccccc4c(=O)n3-c3ccccc3Cl)sc2N2CCOCC2)cc1", "melting point", "> 275 °C"),
    ("C=C(C)CN(CC(=O)O)c1c(N)c(=O)c1=O", "melting point", "184 to 186 °C"),
    ("CCOC(=O)C(=O)c1cn(Cc2ccc(C(C)(C)C)cc2)c2cc(-c3ccc(C(F)(F)F)cc3)ccc12", "melting point", "164 to 165 °C"),
    ("CN1CCC/C1=C\\c1nc(-c2ccc(F)cc2)c(-c2ccncc2)n1CCCc1ccccc1", "melting point", "171 to 172 °C"),
    ("Cc1ccc(C(=O)c2cccc3c2CCC3C(=O)O)cc1 (centres undefined)", "melting point", "128 to 131 °C"),
    ("Cc1ccc(S(=O)(=O)OCC2Cc3cccc(-c4cccc(F)c4)c3O2)cc1 (centres undefined)", "melting point", "88 to 90 °C"),
]

Q: Sample Cc1oc(-c2ccccc2)nc1CCOc1ccc(CC(C(N)=O)C(=O)O)cc1 (centres undefined) — what was its melting point?
Ans: 138 °C

Q: Looking for the measured melting point of "COC(=O)c1ccc(OC)c(N(C(C)=O)c2cc(Cl)cc(Cl)c2)c1" , can you help?
Ans: 100 to 101 °C

These data points were gathered from a melting point compilation (Tetko et al.; mined from patent text by program, amines drawn as free bases though some values may be those of a salt).
